Target sequence: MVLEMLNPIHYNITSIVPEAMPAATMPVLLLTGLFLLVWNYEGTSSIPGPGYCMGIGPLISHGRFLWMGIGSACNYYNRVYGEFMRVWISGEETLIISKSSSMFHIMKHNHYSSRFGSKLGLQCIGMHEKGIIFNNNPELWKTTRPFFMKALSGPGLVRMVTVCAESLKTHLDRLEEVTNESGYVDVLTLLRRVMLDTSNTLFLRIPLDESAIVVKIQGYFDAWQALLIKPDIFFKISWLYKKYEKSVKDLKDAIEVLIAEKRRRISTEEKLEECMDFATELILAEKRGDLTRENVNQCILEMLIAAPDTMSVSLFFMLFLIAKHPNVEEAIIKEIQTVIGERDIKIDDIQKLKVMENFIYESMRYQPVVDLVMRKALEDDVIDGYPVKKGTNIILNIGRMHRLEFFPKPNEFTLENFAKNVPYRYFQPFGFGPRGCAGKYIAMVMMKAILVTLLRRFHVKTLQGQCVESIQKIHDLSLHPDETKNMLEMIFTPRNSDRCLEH
Measured endpoint: pIC50
Recall that pIC50 is obtained by taking minus log10 of the concentration measured in molar.

Find the recorded pIC50 belonging to O=C1CC(c2ccc(O)cc2)Oc2c1ccc1ccccc21 (stereo unspecified) and report it. 6.20
